# experiment_notes: Toxicity in Homo sapiens (human) HepG2 cells assessed as cell viability at 5 mM after 24 hr by MTT assay
# Assay type: cell-based
# experimental_context: read-out: Activity
result_type: viability at 24 h, 5000 µM

The reported value for NC(=O)c1cnccn1 [PYRAZINAMIDE] in terms of viability at 24 h, 5000 µM is 102%

The reported value for NNC(=O)c1ccncc1 in terms of viability at 24 h, 5000 µM is 99.7%

====

# experiment_notes: Toxicity in Homo sapiens (human) HepG2 cells assessed as cell viability at 10 mM after 24 hr by MTT assay
# Type: cell-based
# experimental_context: read-out: Activity
// viability at 24 h, 10000 µM lookup, one value per entry
# output: bare number, implied unit %

compound: NNC(=O)c1ccncc1
viability at 24 h, 10000 µM, %: 129

The record that follows has no viability at 24 h, 10000 µM shown yet.
The reported value for NC(=O)c1cnccn1 [PYRAZINAMIDE] in terms of viability at 24 h, 10000 µM is 104
